Target: mMC1R (Mus musculus)
Sequence (Q01727 whole entry): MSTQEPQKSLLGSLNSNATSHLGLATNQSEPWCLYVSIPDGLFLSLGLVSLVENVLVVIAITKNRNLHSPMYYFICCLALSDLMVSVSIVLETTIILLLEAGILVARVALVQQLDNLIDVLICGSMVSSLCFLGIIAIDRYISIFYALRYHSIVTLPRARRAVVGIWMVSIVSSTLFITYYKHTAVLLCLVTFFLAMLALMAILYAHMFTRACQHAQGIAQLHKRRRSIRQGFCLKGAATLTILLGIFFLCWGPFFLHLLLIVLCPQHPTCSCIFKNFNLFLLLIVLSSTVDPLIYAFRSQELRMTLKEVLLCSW
Assay: AlphaScreen cAMP agonist assay, HEK293 cells stably expressing mMC1R
Entries annotated with measured EC50
The figure you give is taken to be in nM; do not add the unit.

Past entries and their recorded results:
{"compound": "CC(C)C[C@H]1CNC(=N)N1C[C@@H]1CCCN1C[C@@H](Cc1ccccc1)N1C[C@@H]([C@H](C)O)N(CC2CCC(C(C)(C)C)CC2)C1=N (some centres unmarked)", "units": "nM", "EC50": 380}
{"compound": "CC(C)CC1CNC(=N)N1CC1CCCN1CC(Cc1ccc2ccccc2c1)N1CC(C(C)O)N(CC2CCC(C(C)(C)C)CC2)C1=N (centres unmarked)", "units": "nM", "EC50": 1000}

Challenge: Identify EC50 associated with the compound CCC[C@@H]1CN([C@H](CC2CCCCC2)CN2CCC[C@H]2CN2C(=N)NC[C@@H]2C(C)C)C(=N)N1CC1CCC(C(C)(C)C)CC1 (some centres unmarked)
Response given: 1000

Challenge: Identify EC50 associated with the compound CCC[C@@H]1CN([C@H](CC2CCCCC2)CN2CCC[C@@H]2CN2C(=N)NC[C@H]2C(C)C)C(=N)N1CC1CCC(C(C)(C)C)CC1 (some centres unmarked)
Response given: 2500

Challenge: Identify EC50 associated with the compound CCC[C@@H]1CN([C@H](CC2CCCCC2)CN2CCC[C@H]2CN2C(=N)NC[C@H]2C(C)C)C(=N)N1CC
Response given: 9000

Challenge: Identify EC50 associated with the compound CC(C)C[C@@H]1CNC(=N)N1C[C@@H]1CCCN1C[C@@H](CC1CCCCC1)N1CCN(CC2CCC(C(C)(C)C)CC2)C1=N (some centres unmarked)
Response given: 510

Challenge: Identify EC50 associated with the compound CC(C)C[C@H]1CNC(=N)N1C[C@H]1CCCN1C[C@@H](Cc1ccccc1)N1C[C@H]([C@@H](C)O)N(CC2CCC(C(C)(C)C)CC2)C1=N (some centres unmarked)
Response given: 3500

Challenge: Identify EC50 associated with the compound CCN1C(=N)N([C@H](Cc2ccccc2)CN2CCC[C@H]2CN2C(=N)NC[C@H]2CC(C)C)C[C@H]1[C@H](C)O
Response given: 20600
